B1: KLHL14 (parent)
chain: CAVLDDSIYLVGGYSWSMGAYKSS

- Variants of: B1
- Method: protein stability index of a GFP-peptide fusion (GPS, HEK-293T) (PSI 1-6); higher = more stable;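 also: lentivirally expressed fusions sorted by FACS into six bins by GFP to DsRed ratio, PSI derived from sequencing read proportions per bin multiplied by bin number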
- Condition description: c terminus: a fixed tail appended
Given measured protein stability index, output T if it is greater than or equal to 2 and F if not.

[[record]]
mutation_key = "Y9P"
classification = "T"

[[record]]
mutation_key = "S17D"
classification = "F"

[[record]]
mutation_key = "A20C"
classification = "T"

[[record]]
mutation_key = "L4M"
classification = "T"

[[record]]
mutation_key = "A20W"
classification = "T"

[[record]]
mutation_key = "L4A"
classification = "F"

[[record]]
mutation_key = "Y21K"
classification = "T"

[[record]]
mutation_key = "G19A"
classification = "T"

[[record]]
mutation_key = "I8C"
classification = "T"

[[record]]
mutation_key = "C1W"
classification = "T"

[[record]]
mutation_key = "G13R"
classification = "T"

[[record]]
mutation_key = "V3R"
classification = "T"

[[record]]
mutation_key = "Y9Q"
classification = "F"

[[record]]
mutation_key = "L10Q"
classification = "F"

[[record]]
mutation_key = "K22C"
classification = "F"

[[record]]
mutation_key = "C1E"
classification = "F"

[[record]]
mutation_key = "G12D"
classification = "T"

[[record]]
mutation_key = "I8P"
classification = "F"

[[record]]
mutation_key = "C1L"
classification = "T"

[[record]]
mutation_key = "Y14H"
classification = "F"

[[record]]
mutation_key = "S23G"
classification = "F"

[[record]]
mutation_key = "S7N"
classification = "T"

[[record]]
mutation_key = "V3L"
classification = "T"

[[record]]
mutation_key = "Y9W"
classification = "T"

[[record]]
mutation_key = "A20K"
classification = "F"

[[record]]
mutation_key = "S23C"
classification = "T"

[[record]]
mutation_key = "G13H"
classification = "T"

[[record]]
mutation_key = "V11M"
classification = "T"

[[record]]
mutation_key = "W16H"
classification = "F"

[[record]]
mutation_key = "A20N"
classification = "T"

[[record]]
mutation_key = "S23H"
classification = "F"

